Peptide text beside a SMILES is read from it.
Quick record of pIC50 values for RAC-alpha serine/threonine-protein kinase (Homo sapiens).
By convention, pIC50 is the negative base-10 log of a molar concentration.

Query: Kindly indicate its recorded pIC50. Item: CCC[C@H](NC(=O)[C@H](CCCNC(=N)N)NC(=O)[C@H](C)N(C)C(=O)[C@@H](N)CCCNC(=N)N)C(=O)N[C@@H](Cc1ccc(O)cc1)C(=O)N[C@@H](CN)C(=O)N[C@@H](CCC(C)C)C(N)=O (HELM PEPTIDE1{R.[meA].R.[Nva].Y.[NC[C@H](N[*:1])C(=O)[*:2]].[CC(C)CC[C@H](N[*:1])C(=O)[*:2]].[am]}$$$$V2.0)
Response: 5.69

Query: Specify pIC50 for CCC[C@H](NC(=O)[C@H](CCCN=C(N)N)NC(=O)[C@@H]1CCCN1C(=O)[C@H](CCCN=C(N)N)NC(=O)[C@H](CCCN=C(N)N)NC(C)=O)C(=O)N[C@@H](Cc1ccc(O)cc1)C(=O)N[C@@H](CN)C(=O)N[C@@H](CCC(C)C)C(N)=O (HELM PEPTIDE1{[ac].R.R.P.R.[Nva].Y.[NC[C@H](N[*:1])C(=O)[*:2]].[CC(C)CC[C@H](N[*:1])C(=O)[*:2]].[am]}$$$$V2.0) and stop.
Response: 5.93

Query: Supply measured pIC50 of CCC[C@H](NC(=O)[C@H](CCCN=C(N)N)NC(=O)[C@@H]1CCCN1C(=O)[C@@H](N)CCCN=C(N)N)C(=O)N[C@@H](Cc1ccc(O)cc1)C(=O)N[C@H](CS)C(=O)N[C@@H](CCC(C)C)C(N)=O in your reply.
Response: 6.40

Query: Specify reported pIC50 for the compound shown: CCC[C@H](NC(=O)[C@H](CCCNC(=N)N)NC(=O)[C@@H]1CCCN1C(=O)[C@H](CCCNC(=N)N)NC)C(=O)N[C@@H](Cc1ccc(O)cc1)C(=O)N[C@@H](CN)C(=O)N[C@@H](CCC(C)C)C(N)=O (HELM PEPTIDE1{[meR].P.R.[Nva].Y.[NC[C@H](N[*:1])C(=O)[*:2]].[CC(C)CC[C@H](N[*:1])C(=O)[*:2]].[am]}$$$$V2.0)
Response: 6.04

Query: Consider the compound CCC[C@H](NC(=O)[C@H](CCCNC(=N)N)NC(=O)[C@@H]1CCCN1C(=O)[C@@H](N)CCCNC(=N)N)C(=O)N[C@@H](Cc1ccc(O)cc1)C(=O)N[C@@H](CN)C(=O)N[C@@H](CCC(C)C)C(N)=O (HELM PEPTIDE1{R.P.R.[Nva].Y.[NC[C@H](N[*:1])C(=O)[*:2]].[CC(C)CC[C@H](N[*:1])C(=O)[*:2]].[am]}$$$$V2.0) and give its recorded pIC50.
Response: 6.03

----------
molecular target: RAC-alpha serine/threonine-protein kinase (Homo sapiens, UniProt P31749); experiment: Inhibition of PKB at 100 uM by radioactive kinase assay relative to control
Sequence (P31749 whole entry): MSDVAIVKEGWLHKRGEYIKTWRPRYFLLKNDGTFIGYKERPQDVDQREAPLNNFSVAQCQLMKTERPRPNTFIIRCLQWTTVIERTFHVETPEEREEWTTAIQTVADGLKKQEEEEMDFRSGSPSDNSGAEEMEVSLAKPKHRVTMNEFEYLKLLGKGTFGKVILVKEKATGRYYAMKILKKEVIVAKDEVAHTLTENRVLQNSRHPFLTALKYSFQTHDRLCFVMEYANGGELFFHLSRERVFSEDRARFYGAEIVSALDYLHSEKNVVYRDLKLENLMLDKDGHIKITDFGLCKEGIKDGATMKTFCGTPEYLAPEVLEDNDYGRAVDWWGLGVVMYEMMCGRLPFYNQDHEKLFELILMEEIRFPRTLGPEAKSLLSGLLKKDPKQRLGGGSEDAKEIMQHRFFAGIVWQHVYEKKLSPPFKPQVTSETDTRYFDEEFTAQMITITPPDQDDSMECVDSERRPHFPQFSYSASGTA
Square brackets hold non-standard residues; d marks the D form. Peptide text beside a SMILES is read from it. Gly(N-4-hydroxybenzyl) = O=C(O)CNCc1ccc(O)cc1; Gly(N-(CH2)3-guanidino) = N=C(N)NCCCNCC(=O)O; hLeu = CC(C)CC[C@H](N)C(=O)O; NMeNva = CCC[C@H](NC)C(=O)O; Nva = CCC[C@H](N)C(=O)O; Dap = NC[C@H](N)C(=O)O; NPrGly = CCCNCC(=O)O
experimental-readout: inhibition (%)
The reply should be a number in %, with the unit left off.

Query: Supply reported inhibition belonging to this compound: CCC[C@H](NC(=O)[C@H](CCCNC(=N)N)NC(=O)[C@@H]1CCCN1C(=O)[C@H](CCCNC(=N)N)NC(C)=O)C(=O)N(C)[C@@H](Cc1ccc(O)cc1)C(=O)N[C@@H](CN)C(=O)N[C@@H](CCC(C)C)C(N)=O (HELM PEPTIDE1{[ac].R.P.R.[Nva].[meY].[NC[C@H](N[*:1])C(=O)[*:2]].[CC(C)CC[C@H](N[*:1])C(=O)[*:2]].[am]}$$$$V2.0)
Response: 40

Query: Report measured inhibition; entry is CCCN(CC(=O)N[C@@H](Cc1ccc(O)cc1)C(=O)N[C@@H](CN)C(=O)N[C@@H](CCC(C)C)C(N)=O)C(=O)[C@H](CCCNC(=N)N)NC(=O)[C@@H]1CCCN1C(=O)[C@@H](N)CCCNC(=N)N (H-RPR[NPrGly]Y[Dap][hLeu]-NH2)
Response: 16

Query: Supply measured inhibition of CCC[C@H](NC(=O)[C@H](CCCNC(=N)N)NC(=O)[C@@H]1CCCN1C(=O)CNCCCNC(=N)N)C(=O)N[C@@H](Cc1ccc(O)cc1)C(=O)N[C@@H](CN)C(=O)N[C@@H](CCC(C)C)C(N)=O (H-[Gly(N-(CH2)3-guanidino)]PR[Nva]Y[Dap][hLeu]-NH2) in your reply.
Response: 95

Query: Given CCC[C@H](NC(=O)[C@H](CCCNC(=N)N)NC(=O)[C@@H]1CCCN1C(=O)[C@@H](N)CCCNC(=N)N)C(=O)N[C@@H](Cc1ccc(O)cc1)C(=O)N[C@@H](CN)C(=O)N[C@@H](CCC(C)C)C(=O)O (HELM PEPTIDE1{R.P.R.[Nva].Y.[NC[C@H](N[*:1])C(=O)[*:2]].[CC(C)CC[C@H](N[*:1])C(=O)O]}$$$$V2.0) , respond with its inhibition.
Response: 95

Query: State its inhibition for this compound: CCC[C@H](NC(=O)[C@H](CCCNC(=N)N)NC(=O)[C@@H]1CCCN1C(=O)[C@H](CCCNC(=N)N)NC(C)=O)C(=O)N[C@@H](Cc1ccc(O)cc1)C(=O)N[C@@H](CN)C(=O)N[C@@H](CCC(C)C)C(=O)O (HELM PEPTIDE1{[ac].R.P.R.[Nva].Y.[NC[C@H](N[*:1])C(=O)[*:2]].[CC(C)CC[C@H](N[*:1])C(=O)O]}$$$$V2.0)
Response: 66

Query: Return the recorded inhibition value; entry: CCC[C@H](NC(=O)[C@H](CCCNC(=N)N)N(C)C(=O)[C@@H]1CCCN1C(=O)[C@@H](N)CCCNC(=N)N)C(=O)N[C@@H](Cc1ccc(O)cc1)C(=O)N[C@@H](CN)C(=O)N[C@@H](CCC(C)C)C(=O)O (HELM PEPTIDE1{R.P.[meR].[Nva].Y.[NC[C@H](N[*:1])C(=O)[*:2]].[CC(C)CC[C@H](N[*:1])C(=O)O]}$$$$V2.0)
Response: 42

Query: Complete the entry with inhibition for CCC[C@@H](C(=O)N[C@@H](Cc1ccc(O)cc1)C(=O)N[C@@H](CN)C(=O)N[C@@H](CCC(C)C)C(N)=O)N(C)C(=O)[C@H](CCCNC(=N)N)NC(=O)[C@@H]1CCCN1C(=O)[C@@H](N)CCCNC(=N)N (H-RPR[NMeNva]Y[Dap][hLeu]-NH2)
Response: 62

Query: Check the records and state inhibition for CCC[C@H](NC(=O)[C@H](CCCNC(=N)N)NC(=O)[C@@H]1CCCN1C(=O)[C@H](CCCNC(=N)N)NC(C)=O)C(=O)N(CC(=O)N[C@@H](CN)C(=O)N[C@@H](CCC(C)C)C(=O)O)Cc1ccc(O)cc1 (Ac-RPR[Nva][Gly(N-4-hydroxybenzyl)][Dap][hLeu]-OH)
Response: 28

Query: Please give measured inhibition of the following entry: CCC[C@H](NC(=O)[C@H](CCCNC(=N)N)NC(=O)[C@@H]1CCCN1C(=O)[C@H](CCCNC(=N)N)NC)C(=O)N[C@@H](Cc1ccc(O)cc1)C(=O)N[C@@H](CN)C(=O)N[C@@H](CCC(C)C)C(N)=O (HELM PEPTIDE1{[meR].P.R.[Nva].Y.[NC[C@H](N[*:1])C(=O)[*:2]].[CC(C)CC[C@H](N[*:1])C(=O)[*:2]].[am]}$$$$V2.0)
Response: 97

Query: Please report inhibition for the following compound: CCC[C@H](NC(=O)[C@H](CCCNC(=N)N)NC(=O)[C@@H]1CCCN1C(=O)[C@@H](N)CCCNC(=N)N)C(=O)N(C)[C@@H](Cc1ccc(O)cc1)C(=O)N[C@@H](CN)C(=O)N[C@@H](CCC(C)C)C(N)=O (HELM PEPTIDE1{R.P.R.[Nva].[meY].[NC[C@H](N[*:1])C(=O)[*:2]].[CC(C)CC[C@H](N[*:1])C(=O)[*:2]].[am]}$$$$V2.0)
Response: 88

Query: Provide one value: measured inhibition of CCC[C@H](NC(=O)[C@H](CCCNC(=N)N)NC(=O)[C@@H]1CCCN1C(=O)[C@H](CCCNC(=N)N)NC(C)=O)C(=O)N[C@@H](Cc1ccc(O)cc1)C(=O)N[C@@H](CN)C(=O)N[C@@H](CCC(C)C)C(N)=O (HELM PEPTIDE1{[ac].R.P.R.[Nva].Y.[NC[C@H](N[*:1])C(=O)[*:2]].[CC(C)CC[C@H](N[*:1])C(=O)[*:2]].[am]}$$$$V2.0)
Response: 92

Query: Give reported inhibition value for CCC[C@H](NC(=O)[C@H](CCCNC(=N)N)NC(=O)[C@@H]1CCCN1C(=O)[C@H](CCCNC(=N)N)NC(C)=O)C(=O)N[C@@H](Cc1ccc(O)cc1)C(=O)N(C)[C@@H](CN)C(=O)N[C@@H](CCC(C)C)C(=O)O (HELM PEPTIDE1{[ac].R.P.R.[Nva].Y.[CN([C@@H](CN)C(=O)[*:2])[*:1]].[CC(C)CC[C@H](N[*:1])C(=O)O]}$$$$V2.0)
Response: 1

Query: Indicate its recorded inhibition; the compound in question is CCCN(CC(=O)N[C@@H](Cc1ccc(O)cc1)C(=O)N[C@@H](CN)C(=O)N[C@@H](CCC(C)C)C(N)=O)C(=O)[C@H](CCCNC(=N)N)NC(=O)[C@@H]1CCCN1C(=O)[C@H](CCCNC(=N)N)NC(C)=O (Ac-RPR[NPrGly]Y[Dap][hLeu]-NH2)
Response: 0
